- test target: Gal(b1-4)GalNAc(a1-3)[Fuc(a1-2)]Gal(b1-4)GlcNAc
- assay method text: glycan array binding signal (z-score within array); higher = stronger binding
- measurement context: glycan notation: IUPAC condensed, linker removed
The full list was thinned out, with the strongest signals kept by preference.
readout kind: glycan array binding signal (z-score)

binder	readout kind	observed result
FimD (Bordetella pertussis) (protein) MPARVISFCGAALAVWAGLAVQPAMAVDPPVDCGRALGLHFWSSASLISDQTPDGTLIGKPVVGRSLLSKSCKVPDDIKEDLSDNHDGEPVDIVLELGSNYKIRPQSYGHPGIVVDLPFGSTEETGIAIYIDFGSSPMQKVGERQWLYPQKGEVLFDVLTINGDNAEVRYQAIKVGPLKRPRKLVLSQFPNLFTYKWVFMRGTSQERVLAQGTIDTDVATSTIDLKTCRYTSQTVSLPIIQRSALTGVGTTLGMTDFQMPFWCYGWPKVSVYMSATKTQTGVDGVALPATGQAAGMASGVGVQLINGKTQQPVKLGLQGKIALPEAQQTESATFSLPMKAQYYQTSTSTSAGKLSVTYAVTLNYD	glycan array binding signal (z-score)	-0.051
